Header: pKi / Serine protease 1 (Bos taurus) / multiple publications
Scale for pKi: -log10 of concentration given in mol/L; no unit attached.

Which pKi is reported with Serine protease 1 (Bos taurus) for this entry: CNc1ccc(C#CC[C@H](NS(=O)(=O)c2ccc3ccccc3c2)C(=O)N(C)C2CCCC2)cc1N ?
4.49

What is its pKi for Serine protease 1 (Bos taurus)? Entry: N=C(N)c1cccc(CNC(=O)CNS(=O)(=O)c2ccc3ccccc3c2)c1
7.10

Notebook: pull reported pKi for Serine protease 1 (Bos taurus), entry NC(N)c1ccc(/C=C2\CCCC/C(=C\c3ccc(C(N)N)cc3)C2=O)cc1
7.05

What value of pKi on Serine protease 1 (Bos taurus) does N=C(N)c1ccc2c(ccn2Cc2ccccc2)c1 have?
4.81

pKi of N=C(N)N1CCCC(CNC(=O)CNS(=O)(=O)c2ccc3ccccc3c2)C1 (stereo not given) on Serine protease 1 (Bos taurus)?
4.12

Which measured pKi belongs to N=C(N)c1ccc(Oc2cccc(Oc3ccc(C(=N)N)cc3)c2)cc1 , tested on Serine protease 1 (Bos taurus)?
6.00

// lookup pKi | system=Serine protease 1 (Bos taurus) | key= CN(C(=O)[C@H](Cc1ccc(CN)cc1)NS(=O)(=O)c1ccc2c(c1)CCCCC2)C1CCCC1
5.20

Param readout = pKi; param system = Serine protease 1 (Bos taurus); param query = CC(=N)N1CCC(Oc2ccc(NCc3cccc(-c4cccc(C(=N)N)c4)c3)cc2[N+](=O)[O-])CC1 ; response: value
Sequence (P00760 whole entry): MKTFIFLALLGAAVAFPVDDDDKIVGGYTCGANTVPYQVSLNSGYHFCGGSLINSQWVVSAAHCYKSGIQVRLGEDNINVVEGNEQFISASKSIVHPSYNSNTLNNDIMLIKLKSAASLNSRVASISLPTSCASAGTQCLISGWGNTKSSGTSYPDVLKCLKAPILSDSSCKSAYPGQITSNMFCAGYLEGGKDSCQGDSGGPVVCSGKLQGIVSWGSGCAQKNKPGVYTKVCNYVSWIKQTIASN
7.38

Please provide the recorded pKi for CS(=O)(=O)N[C@@H](C(=O)N1CCC[C@H]1C(=O)NCc1csc(CN)c1)C(c1ccccc1)c1ccccc1 , tested on Serine protease 1 (Bos taurus).
6.22

Lab note: need pKi for CCOC(=O)[C@@H]1C[C@@H](Oc2c(F)c(Oc3cccc(C(=O)N(C)C)c3)nc(Oc3cc(C(=N)N)ccc3O)c2F)CN1 on Serine protease 1 (Bos taurus), anyone have it?
6.13

Tell me reported pKi for CCOC(=O)CN(C)c1c(F)c(Oc2cccc(C3=NCCN3C)c2)nc(Oc2cc(C(=N)N)ccc2O)c1F , tested with Serine protease 1 (Bos taurus).
6.62

Report pKi for N=C(N)c1cccc(-c2nocc2C(=O)Nc2ccc(-c3ccccc3S(N)(=O)=O)cc2)c1 tested on Serine protease 1 (Bos taurus).
7.68

Reported pKi for Serine protease 1 (Bos taurus), given N=C(N)c1ccc(O)c(Oc2cc(C(=O)O)cc(Oc3cccc(NCCN)c3)n2)c1 ?
6.46

GET /values?readout=pKi&system=Serine protease 1 (Bos taurus)&item= C=C1CC(c2ccc(NC(=N)N)cc2)CC(=O)O1 (stereo not given)
5.03

Lab note: need pKi for Cc1c(F)c(Oc2cccc(C(=O)N(C)C)c2)nc(Oc2cc(C(=N)N)cc(O)c2O)c1F on Serine protease 1 (Bos taurus), anyone have it?
5.96

Report pKi for N=C(N)c1cccc(C[C@H](NS(=O)(=O)c2ccc3ccccc3c2)C(=O)OCc2ccccc2)c1 tested on Serine protease 1 (Bos taurus).
6.28

Query the reported pKi for Serine protease 1 (Bos taurus); item: N=C(N)c1ccc2c(ccn2Cc2ccc([N+](=O)[O-])cc2N)c1
5.27

Request - read-out pKi | tested on Serine protease 1 (Bos taurus) | molecule N=C(N)NCCC[C@@H]1NC(=O)[C@@H]2CCCN2C(=O)[C@@H](Cc2ccccc2)NC(=O)CCCCCCCCCCNC(=O)C1=O (single isomer, unassigned)
7.60

Please tell me: pKi of COc1cc(Oc2nc(Oc3cccc(C(=N)N)c3)c(F)c(C)c2F)cc(C(=O)N(C)C)c1 , system Serine protease 1 (Bos taurus)?
6.12

Hi! What's the reported pKi for N=C(N)N1CCCC(CNC(=O)[C@H](Cc2c[nH]c3ccccc23)NS(=O)(=O)c2ccc3ccccc3c2)C1 (stereo not given in full) on Serine protease 1 (Bos taurus)?
4.57

What pKi appears in the records for this molecule with Serine protease 1 (Bos taurus)? Cc1ccc(NS(=O)(=O)Cc2ccc(F)cc2)c(=O)n1CC(=O)NCC1CCc2n[nH]cc2C1 (stereo not given)
3.59

What pKi appears in the records for this molecule with Serine protease 1 (Bos taurus)? CNC(=O)[C@H](Cc1cccc(C(=N)N)c1)NS(=O)(=O)c1ccc2ccccc2c1
4.60

Give the reported pKi for CN(C(=O)[C@H](Cc1ccc(C(=N)N)cc1)NS(=O)(=O)c1ccc2ccccc2c1)C1CCCC1 (system: Serine protease 1 (Bos taurus)).
4.79

Please provide the recorded pKi for CC(=N)N1CCC(N(CCCC(=O)O)c2ccc3c(c2)nc(C)n3Cc2ccc3ccc(C(=N)N)cc3c2)CC1 , tested on Serine protease 1 (Bos taurus).
6.10

Enter reported pKi observed with Serine protease 1 (Bos taurus) for CC(=N)N1CCC(Oc2ccc(N(C/C=C/c3cccc(C(=N)N)c3)C(=O)c3ccc(C(=O)O)c(C(=O)O)c3)cc2C(F)(F)F)CC1
8.00

Lookup: pKi / Serine protease 1 (Bos taurus) / CCC(=O)c1cc2ccc(C(=N)N)cc2[nH]1
4.82

Provide value of pKi for this record tested with Serine protease 1 (Bos taurus): N=C(N)c1ccc2[nH]ccc2c1
4.54

Field: pKi (Serine protease 1 (Bos taurus)). Entry: CN1CCC(Oc2ccc(N(C/C=C/c3cc(C(=N)N)ccc3O)C(=O)CCC(=O)O)cc2C(F)(F)F)CC1
6.12

Param readout= pKi; system= Serine protease 1 (Bos taurus); entry= CNC(=O)C(=O)[C@@H](NC(=O)[C@@H]1CCCN1C(=O)[C@@H](Cc1ccccc1)NC)[C@H]1CC[C@H](N)CC1 ; returns value.
5.94

Provide value of pKi for this record tested with Serine protease 1 (Bos taurus): Cc1c(F)c(N(C)c2cccc(C(=N)N)c2)nc(N(C)c2cccc(C(=N)N)c2)c1F
6.44

pKi of N=C(N)c1cccc(C[C@H](NS(=O)(=O)c2ccc3ccccc3c2)C(=O)N2CCC(C(=O)NCc3ccccc3)CC2)c1 on Serine protease 1 (Bos taurus)?
6.57
